Test system: A498
Experiment: Growth inhibition of human A498 cells assessed as cell growth at 10^-6 M incubated for 48 hrs by sulforhodamine B assay
Format: functional
Conditions: A498, 48 h, read-out: Activity
Property Measured: growth at 1 µM (%)
# number only, unit % dropped from output

Clc1ccc(-c2nc(Nc3ccc(-c4nc5ccccc5[nH]4)cc3)nc(N3CCOCC3)n2)cc1    89
c1ccc(-c2nc(Nc3ccc(-c4nc5ccccc5[nH]4)cc3)nc(N3CCOCC3)n2)cc1    55
c1ccc2[nH]c(-c3ccc(Nc4nc(N5CCCCC5)nc(N5CCOCC5)n4)cc3)nc2c1    83

Turning now to a further record.
# input Using known records, supply growth at 1 µM for Fc1ccc(-c2nc(Nc3ccc(-c4nc5ccccc5[nH]4)cc3)nc(N3CCOCC3)n2)cc1
# output 74

Reference for the values: ChEMBL document CHEMBL3808334
